Assay overview: qHTS of pediatric cancer cell lines to identify multiple opportunities for drug repurposing: Confirmatory screen for BT-12 cells (AID 1347112);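 further: viability read after 48 h of compound exposure; nearly all actives have a fitted effect of over 55% in size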
Particulars: BT-12 rhabdoid tumor cells, viability; series mostly up to 45.9 µM
Records with an inconclusive call do not appear. Calls of active or inactive are those of the source. The call rests on the fitted dose curve; in most records, active means well fitted cell-killing curve with a large enough effect; inconclusive means small, poorly fitted or top-dose-only effect; inactive means flat fitted curve, though single readings scatter.
Outcomes: Y (active), N (inactive)

[
  {
    "Smiles": "COc1c(OCCCN2CCOCC2)ccc2c3n(c(=NC(=O)c4cnc(N)nc4)nc12)CCN3",
    "Assigned category": "N"
  },
  {
    "Smiles": "O=C(C=Cc1cccc(S(=O)(=O)Nc2ccccc2)c1)NO",
    "Assigned category": "Y"
  },
  {
    "Smiles": "CC[C@@]1(O)C(=O)OCc2c1cc1n(c2=O)Cc2cc3cc(O)ccc3nc2-1",
    "Assigned category": "Y"
  }
]

----------
Assay overview: Quantitative High-Throughput drug screen in 47 multiple myeloma cell lines against the NCATS MIPE library collection: KHM11_PLB cell viability assay (AID 1918962); further: potency means the concentration at half of the fitted maximal effect; nearly all actives have a fitted effect of over 35% in size
Particulars: KHM11 myeloma cell viability, CellTiter-Glo ATP luminescence, 48 h; series mostly up to 45.8 µM
Inconclusive results are not listed. The source made the active and inactive calls. The call rests on the fitted dose curve; in most records, active means well fitted cell-killing curve with a large enough effect; inconclusive means small, poorly fitted or top-dose-only effect, or effect the other way; inactive means no such curve, though single readings can be large or run the other way.
We begin with a simple list: items and their reported Potency.

[
  {
    "Smiles": "CN(c1ncccc1CNc1nc(Nc2ccc3c(c2)CC(=O)N3)ncc1C(F)(F)F)S(C)(=O)=O",
    "Potency": "2.96 µM (active)"
  },
  {
    "Smiles": "Cc1cc(Nc2cc(N3CCN(C)CC3)nc(Sc3ccc(NC(=O)C4CC4)cc3)n2)n[nH]1",
    "Potency": "1.32 µM (active)"
  },
  {
    "Smiles": "C[C@]1(CO)CN(c2cc(C(=O)Nc3ccc4c(c3)-c3c(c(C(N)=O)nn3-c3ccc(F)cc3)CC4)c(Cl)cn2)C[C@@]1(C)CO",
    "Potency": "4.18 µM (active)"
  },
  {
    "Smiles": "COc1cc(C(=O)NS(=O)(=O)c2ccccc2C)ccc1Cc1cn(C)c2ccc(NC(=O)OC3CCCC3)cc12",
    "Potency": "10.5 µM (active)"
  },
  {
    "Smiles": "CCNC(=O)Nc1ccc2ncc(Nc3ccc(C)cc3)nc2n1",
    "Potency": "3.72 µM (active)"
  }
]

----------
Tested on: CP269
Assay overview: qHTS profiling for inhibitors of Plasmodium falciparum proliferation (AID 504749); further: nearly all actives have a fitted effect of over 60% in size
Particulars: P. falciparum in erythrocytes, SYBR Green DNA, 72 h; series mostly up to 28.7 µM
Inconclusive results are not listed. Activity calls are given as the source filed them. Calls come from the whole dose curve; as a rule, active = well fitted inhibition curve with a large enough effect; inconclusive = small, poorly fitted or top-dose-only effect; inactive = flat fitted curve, though single readings scatter.
Outcomes: active, inactive

[
  {
    "Smiles": "Nc1ccn([C@@H]2CS[C@H](CO)O2)c(=O)n1",
    "Assigned category": "inactive"
  },
  {
    "Smiles": "CCC1=C[C@@H]2CN(C1)Cc1c([nH]c3ccccc13)[C@@](C(=O)OC)(c1cc3c(cc1OC)N(C)[C@@H]1[C@@](O)(C(=O)OC)[C@H](OC(C)=O)[C@]4(CC)C=CCN5CC[C@]31[C@@H]54)C2",
    "Assigned category": "active"
  },
  {
    "Smiles": "C[C@H]1C[C@@H]2[C@@H]([C@@H](O)C[C@@]3(C)[C@H]2CC[C@]3(O)C(=O)CO)[C@@]2(C)C=CC(=O)C=C12",
    "Assigned category": "inactive"
  },
  {
    "Smiles": "COc1c(N2C[C@@H]3CCCN[C@H]3C2)c(F)cc2c(=O)c(C(=O)O)cn(C3CC3)c12",
    "Assigned category": "inactive"
  }
]

The values you see were collected from PubChem BioAssay (NCATS).
